These data points were gathered from patent EP0606463B1.

Target desc: NMB Receptor (Rattus norvegicus)
Construct: a full length NMB-preferring bombesin receptor clone generated from rat esophagus; expressed in transfected cells; host or cells: BALB 3T3 cells
Method notes: [3H]inositol phosphates (IP) in NMB-R transfected cells
Assay type: cell-based
Condition label: analog 10 µM plus NMB 3 nM; NMB without analog 186 ± 58
Where a SMILES comes first, the peptide text is derived from it. Bridges are numbered along the chain shown (N, C = ends). [ ]: non-standard residue; d: D form. 2Nal = N[C@@H](Cc1ccc2ccccc2c1)C(=O)O; d2Nal = N[C@H](Cc1ccc2ccccc2c1)C(=O)O
Parameter: NMB-R Transfected Cells [^3H]IP Plus NMB (3 nM)

Compound	Observed
CC(C)[C@@H]1NC(=O)[C@H](CCCCN)NC(=O)[C@@H](Cc2c[nH]c3ccccc23)NC(=O)[C@H](Cc2ccc(O)cc2)NC(=O)[C@@H](NC(=O)[C@H](N)Cc2c[nH]c3ccccc23)CSSC[C@@H](C(=O)N[C@@H](Cc2ccc3ccccc3c2)C(N)=O)NC1=O [Analog #12, [D-Trp^1]-cyclo SS-octa] (H-[dW]CY[dW]KVC[2Nal]-NH2; disulfide 2-7; N-terminus assumed)	43 ± 2 dpm x 10^3
C[C@@H](O)[C@H](NC(=O)[C@@H]1CSSC[C@H](NC(=O)[C@H](N)Cc2ccc3ccccc3c2)C(=O)N[C@@H](Cc2ccc(O)cc2)C(=O)N[C@H](Cc2c[nH]c3ccccc23)C(=O)N[C@@H](CCCCN)C(=O)N[C@@H](Cc2ccc3ccccc3c2)C(=O)N1)C(N)=O [Analog #2, [Nal^6,Thr^8]-cyclo SS-octa]	39 ± 7 dpm x 10^3
CC(C)[C@@H]1NC(=O)[C@H](CCCCN)NC(=O)[C@@H](Cc2c[nH]c3ccccc23)NC(=O)[C@H](Cc2ccc(O)cc2)NC(=O)[C@H](NC(=O)[C@H](N)Cc2ccc3ccccc3c2)CSSC[C@@H](C(=O)N[C@@H](Cc2ccc3ccccc3c2)C(N)=O)NC1=O [Analog #10, [D-Cys^2]-cyclo SS-octa] (H-[d2Nal][dC]Y[dW]KVC[2Nal]-NH2; disulfide 2-7; N-terminus assumed)	4 ± 2 dpm x 10^3

====

NMB-R Transfected Cells [^3H]IP Alone (10 µ M) values for the compounds below.
Target desc: NMB Receptor (Rattus norvegicus, UniProt P24053)
Construct: a full length NMB-preferring bombesin receptor clone generated from rat esophagus; expressed in transfected cells; host or cells: BALB 3T3 cells
Sequence (P24053 whole entry): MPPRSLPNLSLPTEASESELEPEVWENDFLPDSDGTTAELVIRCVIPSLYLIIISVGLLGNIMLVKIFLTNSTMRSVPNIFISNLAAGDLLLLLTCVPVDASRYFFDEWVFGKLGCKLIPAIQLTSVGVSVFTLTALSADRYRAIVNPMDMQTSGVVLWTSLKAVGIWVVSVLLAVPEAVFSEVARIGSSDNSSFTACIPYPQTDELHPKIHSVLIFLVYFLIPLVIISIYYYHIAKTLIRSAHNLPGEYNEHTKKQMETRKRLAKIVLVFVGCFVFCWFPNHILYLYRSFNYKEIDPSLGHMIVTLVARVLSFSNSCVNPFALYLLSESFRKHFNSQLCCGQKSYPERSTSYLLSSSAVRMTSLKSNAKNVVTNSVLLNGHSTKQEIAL
Method notes: [3H]inositol phosphates (IP) in NMB-R transfected cells
Assay type: cell-based
Condition label: analog 10 µM alone; no-additive control 13 ± 3
Where a SMILES comes first, the peptide text is derived from it. Bridges are numbered along the chain shown (N, C = ends). [ ]: non-standard residue; d: D form. 2Nal = N[C@@H](Cc1ccc2ccccc2c1)C(=O)O; d2Nal = N[C@H](Cc1ccc2ccccc2c1)C(=O)O; Lys(iPr) = CC(C)NCCCC[C@H](N)C(=O)O
Parameter: NMB-R Transfected Cells [^3H]IP Alone (10 µ M) (dpm x 10^3)

Compound	Observed
CC(C)[C@@H]1NC(=O)[C@H](CCCCN)NC(=O)[C@@H](Cc2c[nH]c3ccccc23)NC(=O)[C@H](Cc2ccc(O)cc2)NC(=O)[C@@H](NC(=O)[C@H](N)Cc2ccc3ccccc3c2)CSSC[C@@H](C(=O)N[C@H](Cc2ccc3ccccc3c2)C(N)=O)NC1=O [Analog #8, [D-Nal^8]-cyclo SS-octa] (H-[d2Nal]CY[dW]KVC[d2Nal]-NH2; disulfide 2-7; N-terminus assumed)	10
CC(C)NCCCC[C@@H]1NC(=O)[C@@H](Cc2c[nH]c3ccccc23)NC(=O)[C@H](Cc2ccc(O)cc2)NC(=O)[C@@H](NC(=O)[C@H](N)Cc2ccccc2)CSSC[C@@H](C(=O)N[C@@H](Cc2ccc3ccccc3c2)C(N)=O)NC(=O)[C@H]([C@@H](C)O)NC1=O [Analog #15] (H-[dF]CY[dW][Lys(iPr)]TC[2Nal]-NH2; disulfide 2-7; N-terminus assumed)	11
C[C@@H](O)[C@H](NC(=O)[C@@H]1CSSC[C@H](NC(=O)[C@H](N)Cc2ccc3ccccc3c2)C(=O)N[C@@H](Cc2ccccc2)C(=O)N[C@H](Cc2c[nH]c3ccccc23)C(=O)N[C@@H](CCCCN)C(=O)N[C@@H]([C@@H](C)O)C(=O)N1)C(N)=O [Analog #18, [Phe^3, Thr^6,8]-cycle SS-octa] (H-[d2Nal]CF[dW]KTCT-NH2; disulfide 2-7)	11
CC(C)[C@@H]1NC(=O)[C@H](CCCCN)NC(=O)[C@@H](Cc2c[nH]c3ccccc23)NC(=O)[C@H](Cc2ccc(O)cc2)NC(=O)[C@@H](NC(=O)[C@H](N)Cc2ccc3ccccc3c2)CSSC[C@H](C(=O)N[C@@H](Cc2ccc3ccccc3c2)C(N)=O)NC1=O [Analog #11, [D-Cys^7]-cyclo SS-octa] (H-[d2Nal]CY[dW]KV[dC][2Nal]-NH2; disulfide 2-7; N-terminus assumed)	10
C[C@@H](O)[C@@H]1NC(=O)[C@H](CCCCN)NC(=O)[C@@H](Cc2c[nH]c3ccccc23)NC(=O)[C@H](Cc2ccc(O)cc2)NC(=O)[C@@H](NC(=O)[C@H](N)Cc2ccccc2)CSSC[C@@H](C(=O)N[C@@H](Cc2ccc3ccccc3c2)C(N)=O)NC1=O [Analog #7, [D-Phe^1, Thr^6]-cyclo-SS-octa] (H-[dF]CY[dW]KTC[2Nal]-NH2; disulfide 2-7; N-terminus assumed)	15

====

Target desc: NMB Receptor (Rattus norvegicus, UniProt P24053)
Construct: a full length NMB-preferring bombesin receptor clone generated from rat esophagus; expressed in transfected cells; host or cells: BALB 3T3 cells
Method notes: [3H]inositol phosphates (IP) in NMB-R transfected cells
Assay type: cell-based
Condition label: analog 10 µM alone; no-additive control 13 ± 3
Where a SMILES comes first, the peptide text is derived from it. Bridges are numbered along the chain shown (N, C = ends). [ ]: non-standard residue; d: D form. 2Nal = N[C@@H](Cc1ccc2ccccc2c1)C(=O)O; d2Nal = N[C@H](Cc1ccc2ccccc2c1)C(=O)O; Lys(Et2) = CCN(CC)CCCC[C@H](N)C(=O)O
Listed here: items and their measured NMB-R Transfected Cells [^3H]IP Alone (10 µ M).
Parameter: NMB-R Transfected Cells [^3H]IP Alone (10 µ M) (dpm x 10^3)

Compound	Observed
CC(C)[C@@H]1NC(=O)[C@H](CCCCN)NC(=O)[C@@H](Cc2c[nH]c3ccccc23)NC(=O)[C@H](Cc2ccc(O)cc2)NC(=O)[C@@H](NC(=O)[C@H](N)Cc2ccccc2)CSSC[C@@H](C(=O)N[C@@H](Cc2ccc3ccccc3c2)C(N)=O)NC1=O [Analog #4, [D-Phe^1]-cyclo SS-octa] (H-[dF]CY[dW]KVC[2Nal]-NH2; disulfide 2-7; N-terminus assumed)	13
CCN(CC)CCCC[C@@H]1NC(=O)[C@@H](Cc2c[nH]c3ccccc23)NC(=O)[C@H](Cc2ccc(O)cc2)NC(=O)[C@@H](NC(=O)[C@H](N)Cc2ccccc2)CSSC[C@@H](C(=O)N[C@@H](Cc2ccc3ccccc3c2)C(N)=O)NC(=O)[C@H]([C@@H](C)O)NC1=O [Analog #16] (H-[dF]CY[dW][Lys(Et2)]TC[2Nal]-NH2; disulfide 2-7; N-terminus assumed)	11
CC(C)[C@@H]1NC(=O)[C@H](CCCCN)NC(=O)[C@@H](Cc2c[nH]c3ccccc23)NC(=O)[C@H](Cc2ccc(O)cc2)NC(=O)[C@@H](NC(=O)[C@H](N)Cc2c[nH]c3ccccc23)CSSC[C@@H](C(=O)N[C@@H](Cc2ccc3ccccc3c2)C(N)=O)NC1=O [Analog #12, [D-Trp^1]-cyclo SS-octa] (H-[dW]CY[dW]KVC[2Nal]-NH2; disulfide 2-7; N-terminus assumed)	9
CC(C)[C@@H]1NC(=O)[C@H](CCCCN)NC(=O)[C@@H](Cc2c[nH]c3ccccc23)NC(=O)[C@H](Cc2ccc(O)cc2)NC(=O)[C@@H](NC(=O)[C@H](N)Cc2ccc3ccccc3c2)CSSC[C@@H](C(=O)N[C@@H](Cc2ccc3ccccc3c2)C(N)=O)NC1=O [Analog #1, D-Nal-Cys-Tyr-D-Trp-Lys-Val-Cys-Nal-NH2] (H-[d2Nal]CY[dW]KVC[2Nal]-NH2; disulfide 2-7; N-terminus assumed)	12
NCCCC[C@@H]1NC(=O)[C@@H](Cc2c[nH]c3ccccc23)NC(=O)[C@H](Cc2ccc(O)cc2)NC(=O)[C@@H](NC(=O)[C@H](N)Cc2ccc3ccccc3c2)CSSC[C@@H](C(=O)N[C@@H](Cc2ccc3ccccc3c2)C(N)=O)NC(=O)[C@H](Cc2ccc3ccccc3c2)NC1=O [Analog #3, [Nal^6]-cyclo SS-octa] (H-[d2Nal]CY[dW]K[2Nal]C[2Nal]-NH2; disulfide 2-7)	11
